FYI, the data here is from patent US6340755B1.

Give measured Interferon-inducing activity of the drug; content of INF in induction mixture for each item. Keep answers brief.
tested on: primary culture of human lymphocytes; assay: Interferon-inducing activity in primary culture of human lymphocytes (immunoenzyme IFN determination); format: cell-based; set-up: unit of the concentration uncertain; settings: 100 (unit uncertain), 24 hours of incubation
Write the answer as a number in IU/3 · 10^4 lymp/ml, unit excluded.

Req: For "Oc1nc(S)nc2c1C(c1ccc(Cl)cc1)c1c(O)nc(S)nc1O2" , what is its reported Interferon-inducing activity of the drug; content of INF in induction mixture?
Resp: 70.5

Req: For "Clc1nc(Cl)c2c(n1)Oc1nc(Cl)nc(Cl)c1C2c1ccccc1" , what is its reported Interferon-inducing activity of the drug; content of INF in induction mixture?
Resp: 40.0

Req: For "Oc1nc(O)c2c(n1)Oc1nc(O)nc(O)c1C2c1ccc(I)cc1" , what is its reported Interferon-inducing activity of the drug; content of INF in induction mixture?
Resp: 243.2

Req: For "Oc1nc(O)c2c(n1)Oc1nc(O)nc(O)c1C2c1ccc(Br)cc1" , what is its reported Interferon-inducing activity of the drug; content of INF in induction mixture?
Resp: 22.2

Req: For "O=[N+]([O-])c1ccc(C2c3c(O)nc(O)nc3Oc3nc(O)nc(O)c32)cc1" , what is its reported Interferon-inducing activity of the drug; content of INF in induction mixture?
Resp: 80.0

* * *

system: primary culture of human lymphocytes; experiment: Interferon-inducing activity in primary culture of human lymphocytes (immunoenzyme IFN determination); format: cell-based; design: unit of the concentration uncertain; conditions: 100 (unit uncertain), 24 hours of incubation
MEASUREMENT_TYPE: Interferon-inducing activity of the drug; content of INF in induction mixture (IU/3 · 10^4 lymp/ml)
Write the answer as a number in IU/3 · 10^4 lymp/ml, unit excluded.

Req: For "O=[N+]([O-])c1ccc(C2c3c(O)nc(S)nc3Oc3nc(S)nc(O)c32)cc1" , what is its reported Interferon-inducing activity of the drug; content of INF in induction mixture?
Resp: 64.0

Req: For "COc1nc(O)nc2c1C(c1ccc([N+](=O)[O-])cc1)c1c(OC)nc(O)nc1O2" , what is its reported Interferon-inducing activity of the drug; content of INF in induction mixture?
Resp: 108.9

Req: For "Oc1nc(O)c2c(n1)Oc1nc(O)nc(O)c1C2" , what is its reported Interferon-inducing activity of the drug; content of INF in induction mixture?
Resp: 74.0

Req: For "Oc1nc(O)c2c(n1)Oc1nc(O)nc(O)c1C2c1ccc(Cl)cc1" , what is its reported Interferon-inducing activity of the drug; content of INF in induction mixture?
Resp: 92.2

* * *

system: primary culture of human lymphocytes; test: Interferon-inducing activity in primary culture of human lymphocytes (immunoenzyme IFN determination); type: cell-based; design: unit of the concentration uncertain; conditions: 10 (unit uncertain), 24 hours of incubation
Cut-off 30 IU/3 · 10^4 lymp/ml on Interferon-inducing activity of the drug; content of INF in induction mixture, inclusive. At or above means yes; below means no.

Req: Reported Interferon-inducing activity of the drug; content of INF in induction mixture at or above 30 IU/3 · 10^4 lymp/ml? "O=[N+]([O-])c1ccc(C2c3c(O)nc(S)nc3Oc3nc(S)nc(O)c32)cc1"
Resp: no

Req: Reported Interferon-inducing activity of the drug; content of INF in induction mixture at or above 30 IU/3 · 10^4 lymp/ml? "Oc1nc(O)c2c(n1)Oc1nc(O)nc(O)c1C2c1ccc(Br)cc1"
Resp: no

Req: Reported Interferon-inducing activity of the drug; content of INF in induction mixture at or above 30 IU/3 · 10^4 lymp/ml? "COc1nc(O)nc2c1C(c1ccc([N+](=O)[O-])cc1)c1c(OC)nc(O)nc1O2"
Resp: yes

Req: Reported Interferon-inducing activity of the drug; content of INF in induction mixture at or above 30 IU/3 · 10^4 lymp/ml? "Oc1nc(S)nc2c1C(c1ccc(Cl)cc1)c1c(O)nc(S)nc1O2"
Resp: no

Req: Reported Interferon-inducing activity of the drug; content of INF in induction mixture at or above 30 IU/3 · 10^4 lymp/ml? "Oc1nc(O)c2c(n1)Oc1nc(O)nc(O)c1C2c1ccc(I)cc1"
Resp: yes

Req: Reported Interferon-inducing activity of the drug; content of INF in induction mixture at or above 30 IU/3 · 10^4 lymp/ml? "Oc1nc(O)c2c(n1)Oc1nc(O)nc(O)c1C2c1ccc(Cl)cc1"
Resp: yes

Req: Reported Interferon-inducing activity of the drug; content of INF in induction mixture at or above 30 IU/3 · 10^4 lymp/ml? "Clc1nc(Cl)c2c(n1)Oc1nc(Cl)nc(Cl)c1C2c1ccccc1"
Resp: no

Req: Reported Interferon-inducing activity of the drug; content of INF in induction mixture at or above 30 IU/3 · 10^4 lymp/ml? "O=[N+]([O-])c1ccc(C2c3c(O)nc(O)nc3Oc3nc(O)nc(O)c32)cc1"
Resp: no
